- System: PPARg:RXRa DBDmut IVT, anti-RXR (DBD mutation: RXRa K156A/R161A, NR concentration 270 nM, RXRa partner concentration 90 nM)
- Test Details: PBM binding z-score (relative to random genomic background probes); higher = stronger binding; sequences stand for … in GC…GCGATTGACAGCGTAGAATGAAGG
Classify by measured PBM binding z-score: 1 if it is equal to or exceeds 1, -1 if it is smaller.

Completed entries (count: 5):
{"Sequence Input": "ACAGACAGGAGATGAAGGTAACTCAGGCTATCAT", "Label Value": -1}
{"Sequence Input": "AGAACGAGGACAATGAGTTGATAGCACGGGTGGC", "Label Value": 1}
{"Sequence Input": "AGAATGAGGTGACCAAAGATCAGGGAAACGCTTG", "Label Value": 1}
{"Sequence Input": "AGAATGAGGTTATGAAGATCAGGGAATTGCGGTC", "Label Value": 1}
{"Sequence Input": "CATACAGGGTCAGCTAGGCTAGAGTAGGGACGGC", "Label Value": 1}

Query string: Dear colleague, could you confirm whether "TCTCGGAGGACACGAAGGTAAGAGCTTTCCAGAG" has PBM binding z-score at or above 1?
Result string: 1

Query string: Does the reported PBM binding z-score for "CCTGCTAGGTCATGGTCAGCTATTCTACAGTATG" fall at or above the 1 mark?
Result string: 1

Query string: Exam item: decide whether the reported PBM binding z-score for "CCGACTGGGGCATAATGTTACCATAAGCCAGCCC" is at least 1.
Result string: 1

Query string: Would you say "CCTACTGGGCCATTCAGAGGTCATTAATCATATG" shows PBM binding z-score at minimum 1?
Result string: 1

Query string: # bool: PBM binding z-score of "TCAAGTAGGTTACCAATGGGGCATTCAGCTTTCT" >= 1
Result string: 1
